Conditions: 298.15 K; 100 kPa; Liquid; Frequency=0.0006 MHz; Alternating current cell with electrodes
ATTRIBUTE_MEASURED: electrical conductivity (S/m)
# number only, unit S/m dropped from output

mol=C[N+](CCO)(CCO)CCO.O=S(=O)([N-]S(=O)(=O)C(F)(F)F)C(F)(F)F measured_value=0.036
mol=CCCC[N+](CCO)(CCO)CCO.O=S(=O)([N-]S(=O)(=O)C(F)(F)F)C(F)(F)F measured_value=0.016
mol=CC[N+](C)(C)CCOC.O=S(=O)([N-]S(=O)(=O)C(F)(F)F)C(F)(F)F measured_value=0.285
mol=CCCC[N+](C)(C)CC.O=S(=O)([N-]S(=O)(=O)C(F)(F)F)C(F)(F)F measured_value=0.182
mol=CC[N+](C)(CCO)CCO.O=S(=O)([N-]S(=O)(=O)C(F)(F)F)C(F)(F)F measured_value=0.076
mol=CC[N+](CCO)(CCO)CCO.O=S(=O)([N-]S(=O)(=O)C(F)(F)F)C(F)(F)F measured_value=0.026

Here's the next entry for you.
Exam item: Report measured electrical conductivity; entry is CC[N+](C)(C)CCCO.O=S(=O)([N-]S(=O)(=O)C(F)(F)F)C(F)(F)F
Marked response: 0.125

----------
Details: 297.15 K; 100 kPa; Liquid; Vibrating tube method
Listed compounds paired with reported mass density
Report only the number, with the unit kg/m3 understood.

Worked examples follow.
mol=CC[N+](C)(C)CCCO.O=S(=O)([N-]S(=O)(=O)C(F)(F)F)C(F)(F)F measured_value=1464.3
mol=CC[N+](C)(CCO)CCO.O=S(=O)([N-]S(=O)(=O)C(F)(F)F)C(F)(F)F measured_value=1516.2
mol=CC[N+](CCO)(CCO)CCO.O=S(=O)([N-]S(=O)(=O)C(F)(F)F)C(F)(F)F measured_value=1530.6
mol=CCCC[N+](CCO)(CCO)CCO.O=S(=O)([N-]S(=O)(=O)C(F)(F)F)C(F)(F)F measured_value=1457.5
mol=CC[N+](C)(C)CCOC.O=S(=O)([N-]S(=O)(=O)C(F)(F)F)C(F)(F)F measured_value=1431.9

Exam item: Output mass density of C[N+](CCO)(CCO)CCO.O=S(=O)([N-]S(=O)(=O)C(F)(F)F)C(F)(F)F
Marked response: 1567.7

Exam item: Identify mass density associated with the compound CCCC[N+](C)(C)CC.O=S(=O)([N-]S(=O)(=O)C(F)(F)F)C(F)(F)F
Marked response: 1372.5

----------
Conditions: 348.15 K; 100 kPa; Liquid; Vibrating tube method
Numbers after ± are expanded uncertainties.
ATTRIBUTE_MEASURED: mass density

mol=C[N+](CCO)(CCO)CCO.O=S(=O)([N-]S(=O)(=O)C(F)(F)F)C(F)(F)F measured_value="1522.3 ± 1.2 kg/m3"
mol=CCCC[N+](CCO)(CCO)CCO.O=S(=O)([N-]S(=O)(=O)C(F)(F)F)C(F)(F)F measured_value="1413.6 ± 1.1 kg/m3"
mol=CC[N+](C)(CCO)CCO.O=S(=O)([N-]S(=O)(=O)C(F)(F)F)C(F)(F)F measured_value="1471.1 ± 1.2 kg/m3"
mol=CCCC[N+](C)(C)CC.O=S(=O)([N-]S(=O)(=O)C(F)(F)F)C(F)(F)F measured_value="1328.4 ± 1.1 kg/m3"
mol=CC[N+](CCO)(CCO)CCO.O=S(=O)([N-]S(=O)(=O)C(F)(F)F)C(F)(F)F measured_value="1486.3 ± 1.2 kg/m3"
mol=CC[N+](C)(C)CCOC.O=S(=O)([N-]S(=O)(=O)C(F)(F)F)C(F)(F)F measured_value="1384.9 ± 1.1 kg/m3"

Next:
Exam item: Read off the recorded mass density for CC[N+](C)(C)CCCO.O=S(=O)([N-]S(=O)(=O)C(F)(F)F)C(F)(F)F
Marked response: 1420.1 ± 1.1 kg/m3

----------
// viscosity lookup, one value per entry
Conditions: 298.15 K; 100 kPa; Liquid; Concentric cylinders viscometry
Please state the figure in mPa·s; there is no need to write the unit.

mol=CC[N+](C)(C)CCOC.O=S(=O)([N-]S(=O)(=O)C(F)(F)F)C(F)(F)F attribute_measured=viscosity measured_value=61.5

Exam item: Please supply the value of reported viscosity for the item CCCC[N+](CCO)(CCO)CCO.O=S(=O)([N-]S(=O)(=O)C(F)(F)F)C(F)(F)F
Marked response: 1072

Exam item: Using the record for C[N+](CCO)(CCO)CCO.O=S(=O)([N-]S(=O)(=O)C(F)(F)F)C(F)(F)F , state its measured viscosity.
Marked response: 568.8

Exam item: Report viscosity for CC[N+](CCO)(CCO)CCO.O=S(=O)([N-]S(=O)(=O)C(F)(F)F)C(F)(F)F
Marked response: 840.6

Exam item: Hello, please tell me recorded viscosity for this one: CCCC[N+](C)(C)CC.O=S(=O)([N-]S(=O)(=O)C(F)(F)F)C(F)(F)F
Marked response: 100.5

Exam item: Identify measured viscosity corresponding to CC[N+](C)(CCO)CCO.O=S(=O)([N-]S(=O)(=O)C(F)(F)F)C(F)(F)F
Marked response: 268.3

Exam item: Answer with the recorded viscosity for the compound listed here: CC[N+](C)(C)CCCO.O=S(=O)([N-]S(=O)(=O)C(F)(F)F)C(F)(F)F
Marked response: 166

----------
Details: 323.15 K; 100 kPa; Liquid; Frequency=0.0006 MHz; Alternating current cell with electrodes
Collected electrical conductivity values appear next to each entry.

Check out these entries, answers already filled in.
mol=CCCC[N+](CCO)(CCO)CCO.O=S(=O)([N-]S(=O)(=O)C(F)(F)F)C(F)(F)F measured_value="0.082 S/m"
mol=CC[N+](CCO)(CCO)CCO.O=S(=O)([N-]S(=O)(=O)C(F)(F)F)C(F)(F)F measured_value="0.118 S/m"
mol=CCCC[N+](C)(C)CC.O=S(=O)([N-]S(=O)(=O)C(F)(F)F)C(F)(F)F measured_value="0.473 S/m"
mol=CC[N+](C)(C)CCOC.O=S(=O)([N-]S(=O)(=O)C(F)(F)F)C(F)(F)F measured_value="0.659 S/m"

Exam item: In one line, give reported electrical conductivity of the entry C[N+](CCO)(CCO)CCO.O=S(=O)([N-]S(=O)(=O)C(F)(F)F)C(F)(F)F .
Marked response: 0.149 S/m

Exam item: Provide only the value of recorded electrical conductivity for CC[N+](C)(CCO)CCO.O=S(=O)([N-]S(=O)(=O)C(F)(F)F)C(F)(F)F
Marked response: 0.253 S/m

Exam item: In one line, give reported electrical conductivity of the entry CC[N+](C)(C)CCCO.O=S(=O)([N-]S(=O)(=O)C(F)(F)F)C(F)(F)F .
Marked response: 0.371 S/m

----------
Conditions: 293.15 K; 100 kPa; Liquid; Concentric cylinders viscometry
ATTRIBUTE_MEASURED: viscosity (mPa·s)
The reply should contain only the number, in mPa·s.

Here is how some compounds turned out for viscosity.
mol=CCCC[N+](C)(C)CC.O=S(=O)([N-]S(=O)(=O)C(F)(F)F)C(F)(F)F units=mPa·s measured_value=132.4
mol=CCCC[N+](CCO)(CCO)CCO.O=S(=O)([N-]S(=O)(=O)C(F)(F)F)C(F)(F)F units=mPa·s measured_value=1684.4

Exam item: Specify reported viscosity for the compound shown: C[N+](CCO)(CCO)CCO.O=S(=O)([N-]S(=O)(=O)C(F)(F)F)C(F)(F)F
Marked response: 838.5

Exam item: Using the record for CC[N+](C)(C)CCCO.O=S(=O)([N-]S(=O)(=O)C(F)(F)F)C(F)(F)F , state its measured viscosity.
Marked response: 220.1

Exam item: Output measured viscosity for this item: CC[N+](CCO)(CCO)CCO.O=S(=O)([N-]S(=O)(=O)C(F)(F)F)C(F)(F)F
Marked response: 1275.4

Exam item: For CC[N+](C)(C)CCOC.O=S(=O)([N-]S(=O)(=O)C(F)(F)F)C(F)(F)F , write its viscosity.
Marked response: 78.3

----------
Conditions: 333.15 K; 100 kPa; Liquid; Vibrating tube method
Numbers after ± are expanded uncertainties.
The following molecules are listed with their measured mass density values.
The reply should read as a number followed by its unit.

As a guide, the following entries are already answered.
mol=CCCC[N+](C)(C)CC.O=S(=O)([N-]S(=O)(=O)C(F)(F)F)C(F)(F)F attribute_measured="mass density" measured_value="1341.2 ± 1.1 kg/m3"
mol=CC[N+](CCO)(CCO)CCO.O=S(=O)([N-]S(=O)(=O)C(F)(F)F)C(F)(F)F attribute_measured="mass density" measured_value="1499.2 ± 1.2 kg/m3"
mol=CC[N+](C)(CCO)CCO.O=S(=O)([N-]S(=O)(=O)C(F)(F)F)C(F)(F)F attribute_measured="mass density" measured_value="1484.1 ± 1.2 kg/m3"
mol=CC[N+](C)(C)CCCO.O=S(=O)([N-]S(=O)(=O)C(F)(F)F)C(F)(F)F attribute_measured="mass density" measured_value="1433 ± 1.1 kg/m3"

Exam item: Supply measured mass density of C[N+](CCO)(CCO)CCO.O=S(=O)([N-]S(=O)(=O)C(F)(F)F)C(F)(F)F in your reply.
Marked response: 1535.4 ± 1.2 kg/m3

Exam item: Let me know recorded mass density for CCCC[N+](CCO)(CCO)CCO.O=S(=O)([N-]S(=O)(=O)C(F)(F)F)C(F)(F)F , thanks.
Marked response: 1426.3 ± 1.1 kg/m3

Exam item: Using known records, supply mass density for CC[N+](C)(C)CCOC.O=S(=O)([N-]S(=O)(=O)C(F)(F)F)C(F)(F)F
Marked response: 1398.5 ± 1.1 kg/m3
